Entries and their chromatographic logP values follow.
assay method text: logP determination by retention times (calibration with alkan-2-ones)
reported metric: chromatographic logP

compound	reported metric	measured result
Cc1nc(C(C)C)sc1-c1ccnc(Nc2cccc(C(F)(F)F)c2)n1	chromatographic logP	4.3
Cc1nc(C2CCCCC2)sc1-c1ccnc(Nc2cccc(C(=O)O)c2)n1	chromatographic logP	3.27
Cc1nc(C(C)C)sc1-c1ccnc(Nc2ccccc2)n1	chromatographic logP	3.55
Cc1nc(N(C)C2CC2)sc1-c1ccnc(Nc2ccccc2)n1	chromatographic logP	2.43
COCc1nc(C)c(-c2ccnc(Nc3ccc(C(F)(F)F)cc3)n2)s1	chromatographic logP	3.59
CCc1nc(C)c(-c2ccnc(Nc3cccc([N+](=O)[O-])c3)n2)s1	chromatographic logP	3.14
COCC(C)Nc1nc(C)c(-c2ccnc(Nc3cccc(O)c3)n2)s1 (stereo not drawn)	chromatographic logP	1.53
COc1cc(Nc2nccc(-c3sc(NCC4CCCO4)nc3C)n2)cc(OC)c1OC (stereo not drawn)	chromatographic logP	1.8
CC(=O)c1cccc(Nc2nccc(-c3sc(N)nc3C)n2)c1	chromatographic logP	1.47

// data source = patent US20090030024A1
